Exercise: state measured composite z-score for each of the compounds provided.
molecular target: Focal adhesion kinase 1 (Homo sapiens); assay: small-molecule microarray binders of FAK, primary screen, biochemical, 635/667 nm fluorescence, BSA, DTT (AID 1130); settings: PTK2 binding, 635 nm fluorescence, higher = more signal;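 also: composite of spot emission at 667 nm and signal to noise over triplicate slides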

Short answer please: composite z-score, Focal adhesion kinase 1 (Homo sapiens), entry CO[C@H]1COC(=O)CC=C[C@@H](C)COC(=O)[C@H]2CCCN2C(=O)CC=C[C@H]1C
-0.0701

Please tell me: composite z-score of O=C(NCCC[N+]1=CC=NC1c1ccccc1)N1CCCc2nc(-c3ccc(Br)cc3)ccc21 (stereo unspecified) , system Focal adhesion kinase 1 (Homo sapiens)?
0.183

# value lookup — system Focal adhesion kinase 1 (Homo sapiens), readout composite z-score, item C#CCCCON=C1[C@H]2CCn3c(=O)n([C@@H](CC)c4ccccc4)c(=O)n3[C@H]2[C@H](O)[C@@H]2O[C@H]12
0.235

Requested read-out composite z-score, target or system Focal adhesion kinase 1 (Homo sapiens), entry CCN1C(=O)[C@H]2[C@H]3[C@H](O)[C@H](O)CC(=NOCC(C)C)[C@H]3CC[C@H]2C1=O
-0.0956

Kindly state the measured composite z-score obtained for C=CC[C@@H]1C=C[C@H](ON=C(C)CCN2CCCCc3nc(C)c(C)cc32)[C@@H](CO)O1 with Focal adhesion kinase 1 (Homo sapiens).
0.499

Lab request: please report composite z-score under test system Focal adhesion kinase 1 (Homo sapiens) for COc1ccc(COC(=O)NN=C2C[C@@H](O)[C@@H](O)[C@@H]3[C@@H]4C(=O)N([C@@H](C)c5ccccc5)C(=O)[C@@H]4CC[C@@H]23)cc1
-0.313

What composite z-score appears in the records for this compound with Focal adhesion kinase 1 (Homo sapiens)? O=C1[C@H]2CCn3c(=O)n(-c4ccccc4)c(=O)n3[C@H]2[C@H](O)[C@@H]2O[C@H]12
-0.339

composite z-score of C=CC[C@@H]1C=CC(ON=C(C)C)[C@@H](CO)O1 (stereo partly specified) on Focal adhesion kinase 1 (Homo sapiens)?
0.0886

Focal adhesion kinase 1 (Homo sapiens) / composite z-score / CC#CCOCCC=C1c2ccccc2[C@@H](OC)[C@@H]1C : value?
-0.0029

Write down the reported composite z-score of COC(=O)[C@H](C)NC(=O)CC=C[C@@H](C)[C@@H]1C=C[C@H](O)[C@@H](CO)O1 , test system: Focal adhesion kinase 1 (Homo sapiens).
-0.118

Hi! What's the reported composite z-score for O=C1C[C@H](c2ccccc2)[C@H](c2ccc(Br)cc2)O1 on Focal adhesion kinase 1 (Homo sapiens)?
0.718

Form field: composite z-score recorded for CC(C)=CCCC(C)=CCON=C1C[C@@H](O)[C@@H](O)[C@@H]2[C@@H]3C(=O)N(Cc4ccc5c(c4)OCO5)C(=O)[C@@H]3CC[C@H]12 with Focal adhesion kinase 1 (Homo sapiens) (enter value)
-0.0613

Value wanted: composite z-score (Focal adhesion kinase 1 (Homo sapiens)) of entry CO[C@@H]1COC(=O)[C@H](COCc2ccccc2)NC(=O)CC=C[C@@H](C)[C@H](OC)COC(=O)[C@@H](C)NC(=O)CC=C[C@H]1C
-0.474

Request - read-out composite z-score | tested on Focal adhesion kinase 1 (Homo sapiens) | compound CCN1C(=O)[C@H]2[C@H]3[C@H](O)[C@H](O)CC(=NO[C@@H]4O[C@H](CO)[C@@H](O)[C@H](O)[C@H]4O)[C@H]3CC[C@H]2C1=O
0.026

Find the measured composite z-score: item CO[C@@H]1COC(=O)[C@H](CCSC)NC(=O)CC=C[C@@H](C)COC(=O)[C@@H]2CCCN2C(=O)CC=C[C@H]1C , target or system Focal adhesion kinase 1 (Homo sapiens).
-0.702

Tell me reported composite z-score for O=C1[C@H]2[C@H]3[C@H](O)[C@H](O)CC(=NO[C@@H]4O[C@H](CO)[C@@H](O)[C@H](O)[C@H]4O)[C@@H]3CC[C@H]2C(=O)N1C1CCCCC1 , tested with Focal adhesion kinase 1 (Homo sapiens).
-0.0408

---

biological target: Alpha-bungarotoxin (Bungarus multicinctus); assay: alpha-bungarotoxin binders on microarray, profiling panel, artefact control for SMM control protein annotation, biochemical, small-molecule microarray, Alexa647 label, 635/667 nm fluorescence (AID 1117); conditions: alpha-BTX-A647 binding fluorescence, higher = more signal
Returns yes if the recorded composite z-score is greater than or equal to 0.03, and no otherwise.

Tell me whether composite z-score is at least 0.03 here: CC(=O)OC[C@H]1O[C@@H](ON=C2[C@H]3CCn4c(=O)n(-c5ccccc5)c(=O)n4[C@H]3[C@H](O)[C@@H]3O[C@H]23)[C@H](OC(C)=O)[C@@H](OC(C)=O)[C@@H]1OC(C)=O
yes

Hi, just wondering whether CC(=O)OC[C@H]1O[C@@H](ON=C(C)CCC(=O)OC[C@H]2O[C@H](C#Cc3ccccc3)C=C[C@@H]2Oc2ccc(C)cc2)[C@H](OC(C)=O)[C@@H](OC(C)=O)[C@@H]1OC(C)=O shows composite z-score of 0.03 or higher.
no

Kindly determine if composite z-score recorded for COC(=O)CC=C[C@@H](C)[C@@H](C=NOC[C@@H](O)COCc1ccco1)NS(=O)(=O)c1ccc(C)cc1 is above or exactly 0.03.
no

Is the recorded value of composite z-score equal to or greater than 0.03 for this compound? COCC#Cc1ccc([C@@H]2N[C@H](C(=O)O)CC[C@H]2C)cc1
yes

Is the recorded value of composite z-score equal to or greater than 0.03 for this compound? CCCNC(=O)OC[C@H]1O[C@H](CCON=C2C[C@@H](O)[C@@H](O)[C@@H]3[C@@H]4C(=O)N(CC)C(=O)[C@@H]4CC[C@@H]23)C=C[C@@H]1Oc1ccc(OC)cc1
yes

Reported composite z-score at or above 0.03? COC(=O)[C@H](C)NC(=O)CCC1CC(OC(=O)NCc2ccc3c(c2)OCO3)CC2(CCCC(COC(=O)NCCc3ccc(Cl)cc3)O2)O1 (stereo not given in full)
yes

Evaluate CCN1C(=O)[C@H]2[C@H]3[C@H](O)[C@H](O)CC(=NO[C@@H]4O[C@H](CO)[C@@H](O)[C@H](O)[C@H]4O)[C@H]3CC[C@H]2C1=O : composite z-score at minimum 0.03?
yes

Tell me whether composite z-score is at least 0.03 here: COc1ccc(O[C@H]2C=C[C@@H](c3ccccc3)O[C@@H]2COC(=O)CCC(C)=NOC[C@@H](O)COCc2ccco2)cc1
no

Hi, just wondering whether CO[C@H]1COC(=O)[C@H](C)COC(=O)[C@@H](OCc2ccccc2)C=C[C@@H]1C shows composite z-score of 0.03 or higher.
no

Answer whether composite z-score of CC(=O)OC[C@H]1O[C@H](C#CCC2CCCCC2)C=C[C@@H]1OC(C)=O is greater than or equal to 0.03.
yes

Please indicate if the recorded composite z-score for O=C1C[C@@H](O)[C@@H](O)[C@@H]2[C@@H]3C(=O)N(c4ccc(F)cc4F)C(=O)[C@@H]3CC[C@H]12 meets or exceeds 0.03.
yes

Does the compound CC(C)[C@@H](OCc1ccccc1)[C@H](C)C=NO[C@H](C)c1cn([C@@H]2COC[C@H]2O)nn1 have recorded composite z-score that is 0.03 or more?
yes

Dear colleague, could you confirm whether CO[C@@H]1C=CCC(=O)N[C@@H](C)C(=O)OC[C@@H](OC)[C@H](C)C=CCC(=O)OC[C@H]1C has composite z-score at or above 0.03?
yes

Tell me whether composite z-score is at least 0.03 here: C[C@H]1C=CCC(=O)OC[C@H](C)C(=O)N2CCC[C@H]2C(=O)OC1
no

Determine whether measured composite z-score meets or exceeds 0.03 for CCOC(=O)[C@H](CC(C)C)NC(=O)CCC1CC(OC(=O)NCc2ccc3c(c2)OCO3)CC2(CCCC(COC(=O)NCCC(C)C)O2)O1 (stereo not given in full)
yes

---

Task for the reader: assign each of the following compounds its reported composite z-score.
target: Epidermal growth factor receptor (Homo sapiens) (UniProt P00533); test: EGFR binders on small-molecule microarrays, primary screen, biochemical, small-molecule microarray, 635 nm fluorescence (AID 1104); settings: EGFR binding, higher = more signal;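 also: score merges 667 nm emission intensity with spot signal to noise over triplicate slides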
Sequence (P00533 whole entry, looked up): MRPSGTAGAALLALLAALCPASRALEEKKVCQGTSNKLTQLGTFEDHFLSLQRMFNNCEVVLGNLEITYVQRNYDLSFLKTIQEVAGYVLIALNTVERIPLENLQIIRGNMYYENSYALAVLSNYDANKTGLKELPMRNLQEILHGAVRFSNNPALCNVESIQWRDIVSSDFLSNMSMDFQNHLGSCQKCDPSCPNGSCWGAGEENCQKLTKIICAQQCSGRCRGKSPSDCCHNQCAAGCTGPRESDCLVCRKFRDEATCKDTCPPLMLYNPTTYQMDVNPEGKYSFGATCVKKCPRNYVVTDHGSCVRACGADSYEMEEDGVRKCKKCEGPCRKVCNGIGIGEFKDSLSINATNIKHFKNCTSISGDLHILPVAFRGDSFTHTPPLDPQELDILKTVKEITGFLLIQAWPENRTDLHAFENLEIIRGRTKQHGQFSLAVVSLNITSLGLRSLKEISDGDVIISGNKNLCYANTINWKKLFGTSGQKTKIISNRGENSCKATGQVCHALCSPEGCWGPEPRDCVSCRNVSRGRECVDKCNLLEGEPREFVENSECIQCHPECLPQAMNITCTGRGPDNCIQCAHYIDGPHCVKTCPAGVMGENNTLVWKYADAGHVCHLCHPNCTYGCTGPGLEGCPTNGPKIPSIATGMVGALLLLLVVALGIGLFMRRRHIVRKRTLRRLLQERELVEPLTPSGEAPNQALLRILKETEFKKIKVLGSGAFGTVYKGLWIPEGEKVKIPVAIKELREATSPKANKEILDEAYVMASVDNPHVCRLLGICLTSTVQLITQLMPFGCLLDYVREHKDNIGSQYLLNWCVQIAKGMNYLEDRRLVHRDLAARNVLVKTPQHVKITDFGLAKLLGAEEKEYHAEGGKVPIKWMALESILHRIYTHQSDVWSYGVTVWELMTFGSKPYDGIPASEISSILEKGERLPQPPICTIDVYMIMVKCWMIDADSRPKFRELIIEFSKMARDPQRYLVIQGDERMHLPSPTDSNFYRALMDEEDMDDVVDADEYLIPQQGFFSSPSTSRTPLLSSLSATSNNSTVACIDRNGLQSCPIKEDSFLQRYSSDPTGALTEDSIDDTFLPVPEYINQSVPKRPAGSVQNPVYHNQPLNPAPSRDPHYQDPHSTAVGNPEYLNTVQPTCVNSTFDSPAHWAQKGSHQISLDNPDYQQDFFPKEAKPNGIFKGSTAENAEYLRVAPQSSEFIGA
Give your answer as a number; write no unit.

Param item = CC(=O)OC[C@H]1O[C@H](CC=NOC[C@@H](O)COCc2ccco2)C=C[C@@H]1OC(C)=O ; retrieve measured composite z-score.
1.58

Dear colleague, I am looking for the recorded composite z-score of the following compound: CCOC(=O)[C@H](Cc1ccccc1)NC(=O)CCC1CC(OC(=O)NCc2cccc3ccccc23)CC2(CCCC(COC(=O)NCCOc3ccccc3)O2)O1 (stereo partly drawn)
0.575

Look at this compound and give its reported composite z-score. CON=C(C)CCC(=O)OC[C@H]1O[C@H](C#Cc2ccccc2)C=C[C@@H]1Oc1ccc(C)cc1
0.252

Record request: composite z-score value, item CC(C)[C@H](NC(=O)OC(C)(C)C)[C@@H](O)CC(=O)C(C)(C)C
0.327

What value of composite z-score has been reported for the following compound? COc1ccc(O[C@H]2C=C[C@@H](c3ccccc3)O[C@@H]2CON=C(C)CCN2CCCc3nc(C)c(C)cc32)cc1
0.227

Item under review: CCOC(=O)CCN1C(=O)[C@H]2[C@H]3[C@H](O)[C@H](O)CC(=NO[C@@H]4O[C@H](CO)[C@@H](O)[C@H](O)[C@H]4O)[C@@H]3CC[C@H]2C1=O . Reported composite z-score?
1.05

Look at this compound and give its reported composite z-score. COC(OC)[C@@H](C)[C@H](OC)[C@@H](C)[C@H](OC)c1ccccc1
0.231

Sample CC(=O)OC[C@H]1O[C@H](CCON=C(C)CCN2CCCc3nc(C)c(C)cc32)C=C[C@@H]1OC(C)=O — what was its composite z-score?
0.986
